experiment: Cytotoxicity against HFF-1 cells incubated for 72 hrs by MTS tetrazolium assay; type: toxicity, cell-based; details: human
OUTCOME_MEASURE: CC50 at 72 h

Value lookup for CC50 at 72 h; key = Clc1ccc([Se]Cc2cn(-c3ccccc3)nn2)cc1
> 64 µM

Value lookup for CC50 at 72 h; key = c1ccc(-n2cc(C[Se]c3cccs3)nn2)cc1
43.1 µM

Value lookup for CC50 at 72 h; key = O=C(Cn1ccnc1[N+](=O)[O-])NCc1ccccc1
> 64 µM

Value lookup for CC50 at 72 h; key = FC(F)(F)c1cccc([Se]Cc2cn(-c3ccccc3)nn2)c1
> 64 µM

Value lookup for CC50 at 72 h; key = Fc1ccc([Se]Cc2cn(-c3ccccc3)nn2)cc1
62.5 µM

Value lookup for CC50 at 72 h; key = c1ccc([Se]Cc2cn(-c3ccccc3)nn2)cc1
48 µM

Value lookup for CC50 at 72 h; key = Clc1ccccc1-n1cc(C[Se]c2ccccc2)nn1
> 64 µM

Value lookup for CC50 at 72 h; key = COc1ccc(-n2cc(C[Se]c3ccccc3)nn2)cc1
> 64 µM

Value lookup for CC50 at 72 h; key = Clc1ccc(-n2cc(C[Se]c3ccccc3)nn2)cc1
> 64 µM

Value lookup for CC50 at 72 h; key = c1ccc(-n2cc(C[Se]c3cccc4ccccc34)nn2)cc1
> 64 µM

Value lookup for CC50 at 72 h; key = Cc1ccc(-n2cc(C[Se]c3ccccc3)nn2)cc1
> 64 µM

Value lookup for CC50 at 72 h; key = Cc1cccc(-n2cc(C[Se]c3ccccc3)nn2)c1
> 64 µM

Value lookup for CC50 at 72 h; key = Cc1ccc([Se]Cc2cn(-c3ccccc3)nn2)cc1
56.1 µM

---

test: Selectivity index, ratio of CC50 for HFF-1 cells to IC50 for intracellular amastigote form of Trypanosoma cruzi Tulahuen expressing Escherichia coli LacZ gene infected in HFF-1 cells; format: toxicity; settings: human, read-out: Selectivity Index
Task for the reader: assign each of the following compounds its reported selectivity ratio.

Value lookup for selectivity ratio; key = c1ccc(-n2cc(C[Se]c3cccc4ccccc34)nn2)cc1
> 20.6

Value lookup for selectivity ratio; key = COc1ccc(-n2cc(C[Se]c3ccccc3)nn2)cc1
> 5

Value lookup for selectivity ratio; key = Cc1cccc(-n2cc(C[Se]c3ccccc3)nn2)c1
> 7

Value lookup for selectivity ratio; key = Cc1ccc(-n2cc(C[Se]c3ccccc3)nn2)cc1
> 6.9

Value lookup for selectivity ratio; key = Cc1ccc([Se]Cc2cn(-c3ccccc3)nn2)cc1
8.4

Value lookup for selectivity ratio; key = c1ccc([Se]Cc2cn(-c3ccccc3)nn2)cc1
5.9

Value lookup for selectivity ratio; key = Clc1ccccc1-n1cc(C[Se]c2ccccc2)nn1
> 4.2

Value lookup for selectivity ratio; key = Cc1ccccc1-n1cc(C[Se]c2ccccc2)nn1
> 6.5

Value lookup for selectivity ratio; key = Clc1ccc(-n2cc(C[Se]c3ccccc3)nn2)cc1
> 5.6

Value lookup for selectivity ratio; key = Clc1ccc([Se]Cc2cn(-c3ccccc3)nn2)cc1
3.3

Value lookup for selectivity ratio; key = c1ccc(-n2cc(C[Se]c3cccs3)nn2)cc1
2.8

Value lookup for selectivity ratio; key = FC(F)(F)c1cccc([Se]Cc2cn(-c3ccccc3)nn2)c1
> 11.9

Value lookup for selectivity ratio; key = O=C(Cn1ccnc1[N+](=O)[O-])NCc1ccccc1
> 30.5

Value lookup for selectivity ratio; key = Fc1ccc([Se]Cc2cn(-c3ccccc3)nn2)cc1
> 5.5

---

experiment: Electrochemical behavior of the compound assessed as oxidation onset potential by cyclic voltammetry analysis relative to normal hydrogen electrode; format: physicochemical
Label Satisfied when Ep is strictly below 0.8 V; at or above that, label Not satisfied.

Threshold test, Ep < 0.8 V: Fc1ccc([Se]Cc2cn(-c3ccccc3)nn2)cc1
Satisfied

Threshold test, Ep < 0.8 V: c1ccc(SCc2cn(-c3ccccc3)nn2)cc1
Not satisfied

Threshold test, Ep < 0.8 V: Cc1cccc(-n2cc(C[Se]c3ccccc3)nn2)c1
Not satisfied

Threshold test, Ep < 0.8 V: c1ccc(-n2cc(C[Se]c3cccc4ccccc34)nn2)cc1
Not satisfied

Threshold test, Ep < 0.8 V: O=[N+]([O-])c1ccc(-n2cc(C[Se]c3ccccc3)nn2)cc1
Not satisfied

Threshold test, Ep < 0.8 V: Clc1ccccc1-n1cc(C[Se]c2ccccc2)nn1
Not satisfied

Threshold test, Ep < 0.8 V: Cc1ccc(-n2cc(C[Se]c3ccccc3)nn2)cc1
Not satisfied

Threshold test, Ep < 0.8 V: FC(F)(F)c1cccc([Se]Cc2cn(-c3ccccc3)nn2)c1
Not satisfied

Threshold test, Ep < 0.8 V: Cc1cc(C)c([Se]Cc2cn(-c3ccccc3)nn2)c(C)c1
Not satisfied

Threshold test, Ep < 0.8 V: COc1ccc(-n2cc(C[Se]c3ccccc3)nn2)cc1
Satisfied

Threshold test, Ep < 0.8 V: c1ccc(-n2cc(C[Se]c3cccs3)nn2)cc1
Not satisfied

Threshold test, Ep < 0.8 V: Clc1ccc([Se]Cc2cn(-c3ccccc3)nn2)cc1
Not satisfied

Threshold test, Ep < 0.8 V: Cc1ccccc1-n1cc(C[Se]c2ccccc2)nn1
Not satisfied

---

experiment: Electrochemical behavior of the compound assessed as oxidation onset potential by cyclic voltammetry analysis relative to normal hydrogen electrode; format: physicochemical
OUTCOME_MEASURE: Ep (V)
Note: unit V is implicit; provide only the numeric part.

Value lookup for Ep; key = Cc1ccc([Se]Cc2cn(-c3ccccc3)nn2)cc1
0.81

Value lookup for Ep; key = Clc1ccc(-n2cc(C[Se]c3ccccc3)nn2)cc1
0.81

Value lookup for Ep; key = c1ccc([Se]Cc2cn(-c3ccccc3)nn2)cc1
0.79
